tested on: HCV genotype 1b replicon in Huh 7 cells; assay: HCV replicon assay (1b_Huh-Luc/Neo-ET cell line, luciferase readout); format: cell-based; settings: Hepatitis C virus, Huh-7; HCV 1b replicon; read-out: Inhibition of HCV genotype 1b
Exercise: for every item that follows, state its recorded EC50.

| compound | EC50 |
| --- | --- |
| COC(=O)N[C@H](C(=O)N1CCC[C@H]1c1ncc(-c2ccc3cc(-c4ccc(-c5cnc([C@@H]6CCCN6C(=O)[C@H](NC(=O)OC)c6cccs6)[nH]5)cc4)ccc3c2)[nH]1)C(C)O (stereo partly drawn) [compound 498] | < 1 nM |
| COC(=O)N[C@H](C(=O)N1CCC[C@H]1c1ncc(-c2ccc3cc(-c4ccc5nc([C@@H]6CCCN6C(=O)[C@@H](NC(=O)OC)C6CC6)[nH]c5n4)ccc3c2)[nH]1)C1CC1 [compound 516] | < 1 nM |
| COC(=O)N[C@@H](C)C(=O)N1CCC[C@H]1c1ncc(-c2ccc3nc(-c4ccc(-c5cnc([C@@H]6CCCN6C(=O)[C@H](NC(=O)OC)c6ccccc6)[nH]5)c(F)c4)ccc3c2)[nH]1 [compound 459] | < 1 nM |
| COC(=O)N[C@H](C(=O)N1CCC[C@H]1C(=O)N[C@H](C)c1ccc(-c2ccc3cc(-c4cnc([C@@H]5CCCN5C(=O)[C@@H](NC(=O)OC)C(C)C)[nH]4)ccc3c2)cc1)C(C)C [compound 561] | 10 to 999 nM |
| COC(=O)N[C@H](C(=O)N1CCC[C@H]1CNC(=O)c1ccc2cc(-c3ccc(-c4cnc([C@@H]5CCCN5C(=O)[C@@H](NC(=O)OC)[C@@H](C)OC)[nH]4)cc3)ccc2c1)[C@@H](C)OC [compound 575] | < 1 nM |
| CC[C@H](C)[C@H](NC(=O)OC)C(=O)N1CCC[C@H]1c1ncc(-c2ccc3nc(-c4ccc(-c5cnc([C@@H]6CCCN6C(=O)[C@H](NC(=O)OC)c6ccccc6)[nH]5)cc4)ccc3c2)[nH]1 [compound 492] | < 1 nM |

Working through the 3 compounds below one at a time, give EC50 for each.
1. COC(=O)N[C@H](C(=O)N1CCC[C@H]1C(=O)Nc1ccc(-c2ccc3cc(-c4cnc([C@@H]5CCCN5C(=O)[C@@H](NC(=O)OC)C5CCOCC5)[nH]4)ccc3n2)cc1)C1CCOCC1 [compound 542]
2. COC(=O)N[C@H](C(=O)N1CCC[C@H]1c1ncc(-c2ccc3cc(-c4ccc5nc([C@@H]6CCCN6C(=O)[C@@H](NC(=O)OC)C6CCCCC6)[nH]c5n4)ccc3c2)[nH]1)C1CCCCC1 [compound 517]
3. COC(=O)N[C@H](C(=O)N1CCC[C@H]1c1ncc(-c2ccc3nc(-c4ccc(-c5cnc([C@@H]6CCCN6C(=O)[C@H](NC(=O)OC6CCOCC6)c6ccccc6)[nH]5)c(F)c4)ccc3c2)[nH]1)C(C)C [compound 452]

Key:
1 to 9.9 nM
< 1 nM
< 1 nM
